Data origin, for the record: ChEMBL document CHEMBL1148481

- System: Nucleic Acid
- Assay overview: Compound dose required to induce 50 percent cross linking in naked plasmid pBR322 DNA following incubation with agent for 2 hours at 37 degree C
- Type: functional
Recorded C50 for the following molecules
Express the result in µM but write the number alone.

See these solved cases before continuing.
# Smiles, Data value
rows = [
    ("COc1cc2c(cc1OCCCCCOc1cc3c(cc1OC)C(=O)N1CCC[C@H]1C=N3)N=C[C@@H]1CCCN1C2=O", 0.07),
    ("C=C1C[C@H]2C=Nc3cc(OCCCCCOc4cc5c(cc4OC)C(=O)N4CC(=C)C[C@H]4C=N5)c(OC)cc3C(=O)N2C1", 0.004),
    ("C=C1C[C@H]2C=Nc3cc(OCCCOc4cc5c(cc4OC)C(=O)N4CC(=C)C[C@H]4C=N5)c(OC)cc3C(=O)N2C1", 0.045),
]

Enquiry: Observed C50 on Nucleic Acid for `COc1cc2c(cc1OCCCOc1cc3c(cc1OC)C(=O)N1CCC[C@H]1C=N3)N=C[C@@H]1CCCN1C2=O` , please.
Return: 0.055
